Attribution: paper PMC6009896

Target: UniProt:P00918
Test: CA catalyzed CO2 hydration stopped-flow assay, CA II
Conditions: IC50 CA II, Table 1; human CA II, stopped-flow CO2 hydration, 15 min preincubation
pIC50: −log10 of the molar value.
value type: pIC50

Request: Give the value of pIC50 reported for the following: COc1ccc(-c2ccc(S(=O)(=O)C(Cc3ccccc3)P(=O)(O)O)cc2)cc1 (centres unmarked)
Response: < 5.00

Request: Give the value of pIC50 reported for the following: Cc1cccc(-c2ccc(S(=O)(=O)N[C@@H](C(C)C)P(=O)(O)O)cc2)c1 [(R)-13]
Response: < 5.00

---

Molecular target: Human CA II (Homo sapiens, UniProt P00918)
Test: CA catalyzed CO2 hydration stopped-flow assay, CA II
Details: IC50 CA II, Table 2; recombinant human CA II, stopped-flow CO2 hydration
value type: pIC50
Notebook: values listed as pIC50 are -log10 of the concentration (mol/L).

Request: Give the observed pIC50 of COc1ccc(-c2ccc(S(=O)(=O)C(Cc3ccccc3)P(=O)(O)O)cc2)cc1 (stereo not shown) [Compound 10] for Human CA II (Homo sapiens, UniProt P00918).
Response: 4.68
